# Tested on: KM mice
# assay notes: Mouse cough test (ammonia-induced coughing)
# Type: in vivo
# measurement context: mice, 30 mg/kg by gavage, 60 min after administration, coughs within 3 min (Table 5)
Marks after values point to notes of the source that are not given here.
observation type: Number of Coughs (time)

{"compound structure string": "CC(C)(Cn1c(=O)cc(Nc2ccc(Oc3ccccn3)cc2)n(Cc2ccc(Cl)cc2)c1=O)C(=O)NS(C)(=O)=O", "Number of Coughs (time)": "17.17** time"}
{"compound structure string": "C[C@@H](Cn1c(=O)cc(Nc2ccc(Oc3cnccn3)cc2)n(Cc2ccc(Cl)cc2)c1=O)C(=O)NS(C)(=O)=O", "Number of Coughs (time)": "16.02** time"}
{"compound structure string": "C[C@@H](Cn1c(=O)cc(Nc2ccc(Oc3ccccn3)cc2)n(Cc2ccc(Cl)cc2)c1=O)C(=O)NS(C)(=O)=O", "Number of Coughs (time)": "16.33** time"}
{"compound structure string": "C[C@@H](Cn1c(=O)cc(Nc2ccc(Oc3cccc(F)n3)cc2)n(Cc2ccc(Cl)cc2)c1=O)C(=O)NS(C)(=O)=O", "Number of Coughs (time)": "21.33** time"}

Turning to the following molecule.
query: Query (molecule): `CS(=O)(=O)NC(=O)C1(Cn2c(=O)cc(Nc3ccc(Oc4ccccn4)cc3)n(Cc3ccc(Cl)cc3)c2=O)CC1` ; field requested: Number of Coughs (time)
result: 16.33** time

###

# tested system: human P2X3 receptor (Homo sapiens, UniProt P56373)
# Sequence (P56373 whole entry): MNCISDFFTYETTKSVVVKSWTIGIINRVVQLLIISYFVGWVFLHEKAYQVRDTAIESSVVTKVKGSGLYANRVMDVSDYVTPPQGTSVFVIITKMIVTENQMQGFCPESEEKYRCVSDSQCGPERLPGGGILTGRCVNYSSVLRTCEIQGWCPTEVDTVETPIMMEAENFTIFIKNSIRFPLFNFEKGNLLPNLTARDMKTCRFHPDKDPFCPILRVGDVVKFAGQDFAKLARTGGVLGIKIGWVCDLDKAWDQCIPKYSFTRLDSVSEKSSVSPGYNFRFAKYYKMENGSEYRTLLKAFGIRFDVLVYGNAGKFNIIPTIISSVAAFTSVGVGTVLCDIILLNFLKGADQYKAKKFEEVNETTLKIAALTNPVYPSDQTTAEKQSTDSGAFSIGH
# assay notes: In vitro bioactivity evaluation: FLIPR antagonist mode, HEK 293 cells stably transfected with human P2X3 receptor, BZATP agonist
observation type: IC50

{"molecule": "O=C(O)C1(Cn2c(=O)cc(Nc3ccc(Oc4ccccn4)cc3)n(Cc3ccc(Cl)cc3)c2=O)CC1 [Compound 13]", "endpoint value": "10.1 to 50 nM"}
{"molecule": "C[C@@H](Cn1c(=O)cc(Nc2ccc(Oc3ccccn3)cc2)n(Cc2ccc(Cl)cc2)c1=O)C(=O)NS(C)(=O)=O [Compound 9]", "endpoint value": "10.1 to 50 nM"}
{"molecule": "CC(C)(Cn1c(=O)cc(Nc2ccc(Oc3ccccn3)cc2)n(Cc2ccc(Cl)cc2)c1=O)C(=O)NS(C)(=O)=O [Compound 12]", "endpoint value": "< 10 nM"}
{"molecule": "C[C@@H](Cn1c(=O)cc(Nc2ccc(Oc3cccc(F)n3)cc2)n(Cc2ccc(Cl)cc2)c1=O)C(=O)NS(C)(=O)=O [Compound 24]", "endpoint value": "< 10 nM"}

From here, focus on the item given below.
query: # query: IC50 of entry C[C@@H](Cn1c(=O)cc(Nc2ccc(Oc3cnccn3)cc2)n(Cc2ccc(Cl)cc2)c1=O)C(=O)NS(C)(=O)=O [Compound 3]
result: 10.1 to 50 nM

Hello, the source for this data is patent US20240391904A1, in case you need it.
